# ASSAY PROCEDURE: COV-362 Cancer Cell Toxicity qHTS against the NCATS CANVASS Library (AID 1347352)
# CONDITION DESCRIPTION: COV-362 viability, CellTiter-Glo luminescence, 72 h; series mostly up to 38.3 µM
Records with an inconclusive call do not appear. The source made the active and inactive calls. Calls come from the whole dose curve; as a rule, active = well fitted cell-killing curve with a large enough effect; inconclusive = small, poorly fitted or top-dose-only effect; inactive = flat fitted curve, though single readings scatter. Numbered stars: 1 amine (or outer) side, 2 acyl side, 3 side chain; on linkers, the order of the positions; unused ones are H or OH. Square brackets hold non-standard residues; d marks the D form. Peptide text beside a SMILES is read from it. ξ: configuration not given here. X4 = O=C(C1CC2(c3ccc(O)cc3)c3ccccc3NC2N1[*:1])[*:2]; ξW = NC(Cc1c[nH]c2ccccc12)C(=O)O; ξY = NC(Cc1ccc(O)cc1)C(=O)O
// one of Yes (active), No (inactive), no free text

Example entries and their recorded answers appear below.
compound=CC1(C)C=Cc2c(ccc3c2OC[C@@H](c2ccc(O)cc2O)C3)O1 group=No
compound=C[C@@H](O)[C@H]1OC(=O)C=C2[C@]3(C)[C@H]4[C@H](OC(=O)[C@@]4(C)[C@@H](O)[C@H]4O[C@H]43)[C@H]3O[C@@]231 group=Yes
compound=O=C(O)[C@@]12COC3(O)C1CCN1CC[C@H]3[C@@H]1c1c2[nH]c2ccccc12 group=No
compound="CC[C@H](C)[C@H](NC(=O)C(Cc1ccc(O)cc1)NC(=O)C(Cc1c[nH]c2ccccc12)NC(=O)[C@H](C)N)C(=O)N1C(C(=O)NC(Cc2ccc(O)cc2)C(=O)O)CC2(c3ccc(O)cc3)c3ccccc3NC12 (stereo partly specified) (H-A[ξW][ξY]I[X4][ξY]-OH)" group=No

Q: What outcome does the record of this test show for `O=c1cc(-c2ccc(O)c(O[C@@H]3O[C@H](CO)[C@@H](O)[C@H](O)[C@H]3O)c2)oc2cc(O[C@@H]3O[C@H](CO)[C@@H](O)[C@H](O)[C@H]3O)cc(O)c12` ?
A: No

Q: Lookup `C=C1C(=O)C[C@H]2C[C@@H]1[C@]2(C)CCC=C(C)C`
A: No

Q: Lookup `COc1ccc(CCCc2cc(O)c(OC)c(O)c2)c(O)c1O`
A: No

Q: Lookup C=CC(=C)CC[C@]1(C)[C@H]2C[C@H](OC(=O)C(C)CC)C=C3[C@H](OC(C)=O)O[C@H](OC(C)=O)[C@@]32[C@H](OC)C[C@@H]1C (stereo partly specified)
A: Yes

Q: Lookup CC12C[C@]3(O)O[C@@H](O1)[C@]1(COC(=O)c4ccccc4)[C@@H]3CC21OC1OC(CO)C(O)C(O)C1O (stereo partly specified)
A: No

Q: Lookup `CCCCCCCCC[C@@H]1C[C@@H]2CC[C@H]3[C@@H](C(=O)OCCCCN=C(N)N)[C@@H](C)N=C(N1)N23`
A: Yes
